Measured GI50 (MDA-MB-435)

// solved cases for GI50 follow
CC(C)(C)C[C@H]1NC(C(=O)NCC[C@H](O)CO)[C@H](c2cccc(Cl)c2)[C@@]12C(=O)Nc1cc(Cl)c(F)cc12 (some centres undefined); 14.1 µM
COc1ccc2c(c1)O/C(=C\c1cccc(OCC(=O)Nc3nc4c(s3)CCCC4)c1)C2=O; > 43.3 µM
CCN(CC)c1ccc(C(=C2C=CC(=[N+](CC)Cc3cccc(S(=O)(=O)O)c3)C=C2)c2ccc(N(CC)Cc3cccc(S(=O)(=O)O)c3)cc2)cc1; 4.07 µM

What value of measured GI50 is listed for Nc1ccn(Cc2ccc(C34CC5CC(CC(C5)C3)C4)c(O)c2)c(=O)n1 ?
> 100 µM
